# TGT: T1, mouse PTPRG ECD (amino acid residues 20-733 of mouse PTPRG) fused to hFc (mouse, UniProt Q05909 20-733)
# T1 construct: Produced in-house; also called mPTPRG-ECD; Mouse PTPRG-ECD-hFc; not shown: human Fc (hFc)
# T1 sequence: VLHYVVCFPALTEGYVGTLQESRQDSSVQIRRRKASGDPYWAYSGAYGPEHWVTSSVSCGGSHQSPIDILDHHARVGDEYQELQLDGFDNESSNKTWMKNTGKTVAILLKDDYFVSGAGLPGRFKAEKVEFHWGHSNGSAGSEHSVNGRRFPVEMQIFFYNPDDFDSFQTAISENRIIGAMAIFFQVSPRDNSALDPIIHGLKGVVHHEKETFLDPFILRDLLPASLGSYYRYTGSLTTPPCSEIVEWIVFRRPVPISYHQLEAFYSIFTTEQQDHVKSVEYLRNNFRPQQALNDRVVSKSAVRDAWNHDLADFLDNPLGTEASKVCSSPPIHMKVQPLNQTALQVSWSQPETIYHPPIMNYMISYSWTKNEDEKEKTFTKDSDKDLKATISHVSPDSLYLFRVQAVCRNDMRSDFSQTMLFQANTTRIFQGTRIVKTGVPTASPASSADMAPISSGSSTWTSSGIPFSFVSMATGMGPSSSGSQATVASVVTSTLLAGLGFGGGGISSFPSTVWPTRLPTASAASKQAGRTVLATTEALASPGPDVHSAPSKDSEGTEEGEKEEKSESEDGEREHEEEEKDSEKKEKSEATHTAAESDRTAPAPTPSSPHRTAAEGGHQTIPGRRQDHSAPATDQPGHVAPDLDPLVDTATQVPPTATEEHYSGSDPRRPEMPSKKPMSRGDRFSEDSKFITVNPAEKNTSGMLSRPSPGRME
# PROTOCOL_DETAILS: ELISA, one condition per Fab and antigen; y axis 0 to 1.8 without name or unit

[
  {
    "BINDER": "Fab_3208 (Fab, V domains shown, Chimeric rabbit/human Fab; also called P3208; clone 3208) VH: AQSVKESEGGLFKPTDTLTLTCTVSGFSLSSYAISWVRRAPGNGLEWIGAIAGYGDAYYASWAKSRSTITRNTNENTVTLKMTSLTAADTATYFCARDDYNVDTGIWGPGTLVTISS VL: SFVLTQPASVQVNLGQTVSLTCTADTLSRRYASWYQQKPGQAPVLLIYRDTSRPSGVPDRFSGSSSGNTATLTISGAQAGDEADYYCATGDGSGSSYQYVFGGGTQLTVTG",
    "binding result": "binds"
  },
  {
    "BINDER": "Fab_1707 (Fab, V domains shown, Chimeric rabbit/human Fab; also called P1707) VH: AQSLEEFGGGLIKPGGTLTLTCTASGFTISSYDMSWVRQAPGSGLEWIGTMAYGGDTYHASWAKSRSTITRDTNLNTVTLKMTSLTVADTATYFCARDVGSGHYYDDMYLWGPGTLVTVSS VL: SFVLTQPASVQVNFGQTVSLTCTADTLSRRYASWYQQKPGQAPVLLIYRDTSRPSGVPDRFSGSSSGNTATLTISGAQAGDEADYYCATGDGSGSSYNYVFGGGTQLTVTG",
    "binding result": "binds"
  }
]

The measurements presented in this section are drawn from patent US20260265410A1.
